pIC50: −log10 of the molar value.
// endpoint pIC50 / system Human liver Cathepsin L (Homo sapiens (Human), UniProt P07711)

compound: CC(C)Oc1ccc(C(=O)c2cccc(C(=NNC(N)=S)c3ccc(OC(C)C)cc3)c2)cc1
boundSign: <
pIC50: 5.00
//
compound: CC(C)Oc1ccc(C(=NNC(N)=S)c2cccc(C(=NNC(N)=S)c3ccc(OC(C)C)cc3)c2)cc1
boundSign: <
pIC50: 5.00
//
compound: NC(=S)NN=C(c1ccccc1)c1cccc(C(O)c2ccccc2)c1 (stereo not shown) [Compound 6, 3-Benzoyl benzhydrol thiosemicarbazone]
boundSign: =
pIC50: 7.62
//
compound: Cc1cccc(C(=O)c2cccc(C(=NNC(N)=S)c3cccc(C)c3)c2)c1
boundSign: =
pIC50: 5.11
